- Test system: Saccharomyces cerevisiae;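 note: PSI per variant is the weighted mean of its sequencing read distribution over the sorted stability bins, counting only variants with over 10 reads summed across bins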
- procedure.summary: protein stability index of tFT-peptide fusion in deletion strain of DOA10 (PSI (0-1 scale)); higher = more stable (slower turnover)
Recorded protein stability index values for a group of sequences are listed next.

{"columns": ["input.sequence", "assay.target", "protein stability index"],
 "data": [
  ["RVTRLDAIYFRIR", "Saccharomyces cerevisiae", 0.717],
  ["CLVSLPILLFFRT", "Saccharomyces cerevisiae", 0.516],
  ["CLVGLPILLFFR", "Saccharomyces cerevisiae", 0.589],
  ["GLYMCSVPCWFR", "Saccharomyces cerevisiae", 0.682],
  ["GLYMCSVGCWFI", "Saccharomyces cerevisiae", 0.585],
  ["GLYMRSVGCWFR", "Saccharomyces cerevisiae", 0.688],
  ["RSLRKLLPLYFR", "Saccharomyces cerevisiae", 0.67],
  ["GLYMSSVGCWFR", "Saccharomyces cerevisiae", 0.688],
  ["GLYMCSVGCGFR", "Saccharomyces cerevisiae", 0.655],
  ["CLVWLPILLFFR", "Saccharomyces cerevisiae", 0.359],
  ["GLYMCSVGCWFM", "Saccharomyces cerevisiae", 0.586],
  ["AITLPMCPWLLR", "Saccharomyces cerevisiae", 0.667],
  ["AITLPMCPLLLE", "Saccharomyces cerevisiae", 0.652],
  ["RSLRCLLPLYFR", "Saccharomyces cerevisiae", 0.681],
  ["RVTRLDAIYFRV", "Saccharomyces cerevisiae", 0.63],
  ["AITLPMCPLLLRP", "Saccharomyces cerevisiae", 0.636],
  ["CRVSLPILLFFR", "Saccharomyces cerevisiae", 0.62],
  ["AITLPMMPLLLR", "Saccharomyces cerevisiae", 0.639],
  ["RSLRVLLPLWFR", "Saccharomyces cerevisiae", 0.67],
  ["MLVSLPILLFFR", "Saccharomyces cerevisiae", 0.565],
  ["CLLSLPILLFFR", "Saccharomyces cerevisiae", 0.571],
  ["AITLPMCPLLDR", "Saccharomyces cerevisiae", 0.7],
  ["RVTRLDAYYFRI", "Saccharomyces cerevisiae", 0.714],
  ["CLVSLAILLFFR", "Saccharomyces cerevisiae", 0.351],
  ["RSQRVLLPLYFR", "Saccharomyces cerevisiae", 0.705],
  ["RSLPVLLPLYFR", "Saccharomyces cerevisiae", 0.672],
  ["GLYPCSVGCWFR", "Saccharomyces cerevisiae", 0.678],
  ["HSLRVLLPLYFR", "Saccharomyces cerevisiae", 0.669],
  ["CLVSLPILLFGR", "Saccharomyces cerevisiae", 0.523],
  ["GIYMCSVGCWFR", "Saccharomyces cerevisiae", 0.611],
  ["AITLPLCPLLLR", "Saccharomyces cerevisiae", 0.647],
  ["GLYACSVGCWFR", "Saccharomyces cerevisiae", 0.678],
  ["RVTRPDAIYFRI", "Saccharomyces cerevisiae", 0.706],
  ["RVTRLDAIYLRI", "Saccharomyces cerevisiae", 0.704],
  ["RVTRLDAIYFNI", "Saccharomyces cerevisiae", 0.703],
  ["RSLRVLLPLYDR", "Saccharomyces cerevisiae", 0.708],
  ["RSLRVLDPLYFR", "Saccharomyces cerevisiae", 0.721]
]}
